The values you see were collected from PubChem BioAssay AID602360.

measured on: Holo-[acyl-carrier-protein] synthase (Bacillus subtilis (strain 168)) (UniProt P96618)
method: qHTS Assay for Inhibitors of Bacillus subtilis AcpS phosphopantetheinyl transferase (PPTase): SAR
stated conditions: purified B. subtilis AcpS enzyme; PPTase activity; series mostly up to 57.1 µM
Records with an inconclusive call do not appear. Calls of active or inactive are those of the source. The call rests on the fitted dose curve; in most records, active means well fitted curve in the direction sought with a large enough effect; inconclusive means small, poorly fitted or top-dose-only effect, or another doubt; inactive means no such curve, though single readings can be large or run the other way.
Respond using exactly one of the listed classes: 1 (yes) = active, 0 (no) = inactive

Some solved entries appear below for comparison.
{"smi": "Cc1ccnc(NC(=S)N[C@@H]2CCN(c3cccc(C(F)(F)F)c3)C2)c1", "class assignment": "0 (no)"}
{"smi": "FC(F)(F)c1cc(N2CCN(C(=S)Nc3cc(Cl)ccn3)CC2)cc(C(F)(F)F)c1", "class assignment": "0 (no)"}
{"smi": "Cc1cc(C)nc(NC(=S)N2CCN(c3ccc([N+](=O)[O-])cc3Cl)CC2)c1", "class assignment": "1 (yes)"}
{"smi": "Cc1cc(C)nc(NC(=S)N2CCN(c3ncccc3C#N)CC2)c1", "class assignment": "0 (no)"}
{"smi": "Cc1ccnc(N=C(N)N2CCN(c3cccc(C(F)(F)F)c3)CC2)c1", "class assignment": "0 (no)"}

Could you check what this test reported for `Cc1ccnc(NC(=S)Nc2cccc(C(F)(F)F)c2)c1` ? 0 (no)

And then `COc1cccc(NC(=S)N2CCN(c3cc(Cl)cc(Cl)c3)CC2)n1` , what is it? 0 (no)

Also check `Cc1ccnc(NC(=S)N2CCN(c3cc(C(F)(F)F)cc(C(F)(F)F)c3)CC2)c1` 1 (yes)
